Give % of OTUB1 modified for every item shown.
Biological target: Human OTUB1 wild-type (Homo sapiens)
Construct: His tag (N); made in house; host or cells: E. coli BL21-CodonPlus (DE3)-RIPIL
Assay: Covalent modification of OTUB1 (adduct formation), mass spectrometry-based assay (OTUB1 covalent binders; selected CFTR or cGAS based bivalent compounds)
Format: binding
Conditions: covalent adduct formation with OTUB1 protein
Numeric only. Scale: %

Input: Please report the recorded % of OTUB1 modified for CN(C)CC#CC(=O)N1CC(C)(C(=O)Nc2cc3ccccc3s2)C1 .
Output: 90

Input: Please report the recorded % of OTUB1 modified for Cc1ocnc1C(=O)N1CC2CC(C1)N2C(=O)/C=C/CN(C)C .
Output: 20

Input: Please report the recorded % of OTUB1 modified for Cc1cnc(NC(=O)C2(O)CN(C(=O)/C=C/CN(C)C)C2)s1 .
Output: 40

Input: Please report the recorded % of OTUB1 modified for CC(C)c1ccc(NC(=O)C2CN(C(=O)C#CC(C)(C)N(C)C)C2)s1 .
Output: 60

Input: Please report the recorded % of OTUB1 modified for Cc1ccc(N2CCN(C(=O)/C=C/CN3CCCCC3)CC2=O)s1 .
Output: 70

Input: Please report the recorded % of OTUB1 modified for CC(C)c1ccc(NC(=O)C2CN(C(=O)/C=C/CN(C)C)C2)s1 .
Output: 45

Input: Please report the recorded % of OTUB1 modified for Cc1csc(NC(=O)C2CCN(C(=O)/C=C/CN(C)C)CC2)c1 .
Output: 3

Input: Please report the recorded % of OTUB1 modified for Cc1ccc(NC(=O)C2CCN(C(=O)/C=C/CN(C)C)C2)s1 (stereo not shown) .
Output: 2

Input: Please report the recorded % of OTUB1 modified for CC(=O)N1CC2(CC(C(=O)N3CC4CC(C3)N4C(=O)/C=C/CN(C)C)C2)C1 .
Output: 25

Input: Please report the recorded % of OTUB1 modified for CN(C)C/C=C/C(=O)N1CCN(c2csc3ccccc23)C(=O)C1 .
Output: 80

Input: Please report the recorded % of OTUB1 modified for Cc1ccc(NC(=O)C2CN(C(=O)C#CC(C)(C)N(C)C)C2)s1 .
Output: 53

Input: Please report the recorded % of OTUB1 modified for CN(C)C/C=C/C(=O)N1C2CC1CN(C(=O)c1cc3c(s1)CCC3)C2 .
Output: 92

Input: Please report the recorded % of OTUB1 modified for Cc1ccc(NC(=O)C2CN(C(=O)CCl)C2)s1 .
Output: 100

Input: Please report the recorded % of OTUB1 modified for Cc1ccc(C(=O)N2CC3CC(C2)N3C(=O)C#CC(C)(C)N(C)C)s1 .
Output: 75

Input: Please report the recorded % of OTUB1 modified for CC(=O)N1CCc2sc(N3CC4CCC(C3=O)N4C(=O)/C=C/CN(C)C)cc2C1 (stereo not shown) .
Output: 97

Input: Please report the recorded % of OTUB1 modified for Cc1ccc(NC(=O)C2CCCCN2C(=O)/C=C/CN(C)C)s1 (stereo not shown) .
Output: 20

Input: Please report the recorded % of OTUB1 modified for Cc1ccc(N2CCN(C(=O)CCl)CC2=O)s1 .
Output: 25

* * *

Target: Human OTUB1 wild-type (Homo sapiens)
Construct: His tag (N); made in house; host or cells: E. coli BL21-CodonPlus (DE3)-RIPIL
Assay: Covalent modification of OTUB1 (adduct formation), mass spectrometry-based assay (OTUB1 covalent binders; selected CFTR or cGAS based bivalent compounds)
Type: binding
Details: covalent adduct formation with OTUB1 protein
parameter measured: % of OTUB1 modified (%)
Numeric only. Scale: %

Input: Please report the recorded % of OTUB1 modified for Cc1ccc(C(=O)N2CCC3(CN(C(=O)/C=C/CN(C)C)C3)C2)s1 .
Output: 25

Input: Please report the recorded % of OTUB1 modified for Cc1ccc(C(=O)NC2CC(NC(=O)C#CC(C)(C)N(C)C)C2)s1 (stereo not shown) .
Output: 15

Input: Please report the recorded % of OTUB1 modified for CC(=O)Nc1ccc2sc(C(=O)N3CC4CC(C3)N4C(=O)/C=C/CN(C)C)cc2c1 .
Output: 92

Input: Please report the recorded % of OTUB1 modified for CN(C)C/C=C/C(=O)N1C2CC1CN(C(=O)c1ccc(C3CCN(C)CC3)s1)C2 .
Output: 92

Input: Please report the recorded % of OTUB1 modified for Cc1ccc(NC(=O)C2CC3CCC(C2)N3C(=O)/C=C/CN(C)C)s1 (stereo not shown) .
Output: 2

Input: Please report the recorded % of OTUB1 modified for COCC#Cc1ccc(C(=O)N2CC3CC(C2)N3C(=O)/C=C/CN(C)C)s1 .
Output: 80

Input: Please report the recorded % of OTUB1 modified for CC(=O)OCC#Cc1ccc(C(=O)N2CC3CC(C2)N3C(=O)/C=C/CN(C)C)s1 .
Output: 45

* * *

Give % of OTUB1 modified for every item shown.
Molecular target: Human OTUB1 wild-type (Homo sapiens, UniProt Q96FW1)
Construct: His tag (N); made in house; host or cells: E. coli BL21-CodonPlus (DE3)-RIPIL
Sequence (Q96FW1 whole entry): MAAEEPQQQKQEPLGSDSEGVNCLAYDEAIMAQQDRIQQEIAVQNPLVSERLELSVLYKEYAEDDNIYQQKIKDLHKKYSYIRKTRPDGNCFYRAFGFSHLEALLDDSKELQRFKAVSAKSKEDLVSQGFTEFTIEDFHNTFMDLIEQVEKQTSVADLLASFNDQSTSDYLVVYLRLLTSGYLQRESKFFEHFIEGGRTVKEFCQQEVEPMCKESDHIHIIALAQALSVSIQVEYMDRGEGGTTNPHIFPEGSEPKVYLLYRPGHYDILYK
Assay: Covalent modification of OTUB1 (adduct formation), mass spectrometry-based assay (OTUB1 covalent binders; selected CFTR or cGAS based bivalent compounds)
Assay type: binding
Conditions: covalent adduct formation with OTUB1 protein

Input: Please report the recorded % of OTUB1 modified for CN(C)C/C=C/C(=O)N1C2CCC1C(=O)N(C1CCCC1)C2 (stereo not shown) .
Output: 80%

Input: Please report the recorded % of OTUB1 modified for Cc1ccc(C(=O)NC2CC3CCC(C2)N3C(=O)/C=C/CN(C)C)s1 (stereo not shown) .
Output: 2%

Input: Please report the recorded % of OTUB1 modified for CC(=O)N1CC2(CCC(C(=O)N3CC4CC(C3)N4C(=O)/C=C/CN(C)C)CC2)C1 .
Output: 35%

Input: Please report the recorded % of OTUB1 modified for Cc1ccc(N2CCN(C(=O)/C=C/CN3CCOCC3)CC2=O)s1 .
Output: <5%

Input: Please report the recorded % of OTUB1 modified for Cc1ccc(C(=O)N2CC3CCC2CN3C(=O)/C=C/CN(C)C)s1 (stereo not shown) .
Output: 7%

Input: Please report the recorded % of OTUB1 modified for CN(C)C/C=C/C(=O)N1C2CCC1C(=O)N(c1cc3ccccc3s1)C2 (stereo not shown) .
Output: 100%

Input: Please report the recorded % of OTUB1 modified for Cc1ccc(C(=O)N2CC3CCC(C2)N3C(=O)/C=C/CN(C)C)s1 .
Output: 20%

Input: Please report the recorded % of OTUB1 modified for CN(C)C/C=C/C(=O)N1CC(NC(=O)c2cc3ccccc3s2)C1 .
Output: 80%

Input: Please report the recorded % of OTUB1 modified for CCCC(=O)N1CC2CC(C1)N2C(=O)C#CCN(C)C .
Output: 90%

Input: Please report the recorded % of OTUB1 modified for CC(=O)N1CCC(c2ccc(C(=O)N3CC4CC(C3)N4C(=O)/C=C/CN(C)C)s2)C1 (stereo not shown) .
Output: 78%

Input: Please report the recorded % of OTUB1 modified for CN(C)CC#CC(=O)N1CC(C(=O)Nc2cc3c(s2)CCCC3)C1 .
Output: 100%

Input: Please report the recorded % of OTUB1 modified for C=CC(=O)N1C2CCC1CN(c1cccc(C)c1)C2 .
Output: 5%

Input: Please report the recorded % of OTUB1 modified for CCCC(=O)N1CC2CC(C1)N2C(=O)C#CC(C)(C)N(C)C .
Output: 15%

Input: Please report the recorded % of OTUB1 modified for CC(C)c1ccc(C(=O)N2CC3CC(C2)N3C(=O)/C=C/CN(C)C)s1 .
Output: 85%

Input: Please report the recorded % of OTUB1 modified for CN(C)CC#CC(=O)N1CC(C(=O)Nc2cc3ccccc3s2)C1 .
Output: 98%

Input: Please report the recorded % of OTUB1 modified for C=CC(=O)N1CCC(=O)N(c2cccc(C)c2)CC1 .
Output: 5%

Input: Please report the recorded % of OTUB1 modified for Cc1ccc(C(=O)N2CC3(CN(C(=O)/C=C/CN(C)C)C3)C2)s1 .
Output: 30%

Input: Please report the recorded % of OTUB1 modified for Cc1ccc(NC(=O)C2(O)CN(C(=O)C#CCN(C)C)C2)s1 .
Output: 98%

Input: Please report the recorded % of OTUB1 modified for Cc1ccc(NC(=O)C2CN(C(=O)/C=C/CN(C)C)C2)s1 .
Output: 40%

* * *

Give % of OTUB1 modified for every item shown.
Target: Human OTUB1 wild-type (Homo sapiens, UniProt Q96FW1)
Construct: His tag (N); made in house; host or cells: E. coli BL21-CodonPlus (DE3)-RIPIL
Experiment: Covalent modification of OTUB1 (adduct formation), mass spectrometry-based assay (OTUB1 covalent binders; selected CFTR or cGAS based bivalent compounds)
Type: binding
Settings: covalent adduct formation with OTUB1 protein
Numeric only. Scale: %

Input: Please report the recorded % of OTUB1 modified for Cc1ccc(NC(=O)C2CC3(C2)CN(C(=O)CCl)C3)s1 .
Output: 100

Input: Please report the recorded % of OTUB1 modified for CN(C)C/C=C/C(=O)N1CC(C(=O)Nc2cc3ccccc3s2)C1 .
Output: 60

Input: Please report the recorded % of OTUB1 modified for CN(C)C/C=C/C(=O)N1C2CC1CN(C(=O)c1cc3c(s1)CCCC3)C2 .
Output: 90

Input: Please report the recorded % of OTUB1 modified for CN(C)CC#CC(=O)N1CC(NC(=O)c2cc3c(s2)CCCC3)C1 .
Output: 92

Input: Please report the recorded % of OTUB1 modified for CN(C)C/C=C/C(=O)N1CC(C(=O)NC2CCCC2)C1 .
Output: 18

Input: Please report the recorded % of OTUB1 modified for CN(C)C/C=C/C(=O)N1CC2(C1)CN(c1cc3ccccc3s1)C2 .
Output: 1

Input: Please report the recorded % of OTUB1 modified for CC(=O)N1CCN(c2ccc(C(=O)N3CC4CC(C3)N4C(=O)/C=C/CN(C)C)s2)CC1 .
Output: 80

Input: Please report the recorded % of OTUB1 modified for CN(C)C/C=C/C(=O)N1CCN(c2c[nH]c3ccccc23)C(=O)C1 .
Output: 58
